- ASSAY TARGET: Epithelial discoidin domain-containing receptor 1 (Homo sapiens); note: in the data inactive means no Kd found up to 30 µM
- Sequence (Q08345 whole entry, the tested form may be a part): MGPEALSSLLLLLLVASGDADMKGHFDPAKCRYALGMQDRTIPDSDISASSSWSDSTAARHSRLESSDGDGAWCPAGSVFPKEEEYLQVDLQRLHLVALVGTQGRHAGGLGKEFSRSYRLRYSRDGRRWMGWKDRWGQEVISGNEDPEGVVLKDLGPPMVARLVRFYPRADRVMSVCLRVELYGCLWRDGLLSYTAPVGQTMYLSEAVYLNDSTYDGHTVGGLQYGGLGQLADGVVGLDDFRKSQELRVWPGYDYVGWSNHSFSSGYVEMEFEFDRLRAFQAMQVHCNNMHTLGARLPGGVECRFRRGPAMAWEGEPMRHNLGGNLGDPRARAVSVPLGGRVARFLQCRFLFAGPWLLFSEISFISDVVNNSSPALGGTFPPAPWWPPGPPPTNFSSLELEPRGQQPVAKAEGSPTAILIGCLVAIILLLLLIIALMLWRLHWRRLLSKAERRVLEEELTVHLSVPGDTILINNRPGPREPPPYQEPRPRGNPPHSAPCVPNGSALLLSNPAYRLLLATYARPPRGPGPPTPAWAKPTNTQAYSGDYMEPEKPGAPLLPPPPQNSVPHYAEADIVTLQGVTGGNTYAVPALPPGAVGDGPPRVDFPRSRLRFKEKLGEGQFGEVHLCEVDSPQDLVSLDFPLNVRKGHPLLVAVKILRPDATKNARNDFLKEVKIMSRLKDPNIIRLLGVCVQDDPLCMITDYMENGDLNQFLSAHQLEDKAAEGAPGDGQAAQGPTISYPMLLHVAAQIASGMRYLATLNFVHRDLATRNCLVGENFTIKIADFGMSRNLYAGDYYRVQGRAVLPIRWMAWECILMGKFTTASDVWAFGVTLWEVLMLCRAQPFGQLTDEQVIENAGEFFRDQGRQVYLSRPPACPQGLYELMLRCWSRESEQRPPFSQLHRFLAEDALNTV
Calls of active or inactive are those of the source.
# valid calls are class 1 (active), class 0 (inactive); nothing else

// below: answered compounds
C=CC(=O)N1CCC(Oc2cc3c(Nc4ccc(Cl)c(Cl)c4F)ncnc3cc2OC)CC1 [POZIOTINIB]	class 0
Cc1cc2c(F)c(Oc3ncnn4cc(OC[C@@H](C)OC(=O)[C@H](C)N)c(C)c34)ccc2[nH]1 [BRIVANIB ALANINATE]	class 1
CCc1cnn2c(NCc3ccc[n+]([O-])c3)cc(N3CCCC[C@H]3CCO)nc12 [DINACICLIB]	class 0

Here is another compound to look at.
Query: For COc1ccc(-c2ccc3c(N4CCOC[C@@H]4C)nc(N4CCOC[C@@H]4C)nc3n2)cc1CO [AZD-8055] , what call appears in the results of this test?
Result: class 0

====

- ASSAY TARGET: Atypical kinase COQ8A, mitochondrial (Homo sapiens, UniProt Q8NI60); note: in the data inactive means no Kd found up to 30 µM
- Sequence (Q8NI60 whole entry): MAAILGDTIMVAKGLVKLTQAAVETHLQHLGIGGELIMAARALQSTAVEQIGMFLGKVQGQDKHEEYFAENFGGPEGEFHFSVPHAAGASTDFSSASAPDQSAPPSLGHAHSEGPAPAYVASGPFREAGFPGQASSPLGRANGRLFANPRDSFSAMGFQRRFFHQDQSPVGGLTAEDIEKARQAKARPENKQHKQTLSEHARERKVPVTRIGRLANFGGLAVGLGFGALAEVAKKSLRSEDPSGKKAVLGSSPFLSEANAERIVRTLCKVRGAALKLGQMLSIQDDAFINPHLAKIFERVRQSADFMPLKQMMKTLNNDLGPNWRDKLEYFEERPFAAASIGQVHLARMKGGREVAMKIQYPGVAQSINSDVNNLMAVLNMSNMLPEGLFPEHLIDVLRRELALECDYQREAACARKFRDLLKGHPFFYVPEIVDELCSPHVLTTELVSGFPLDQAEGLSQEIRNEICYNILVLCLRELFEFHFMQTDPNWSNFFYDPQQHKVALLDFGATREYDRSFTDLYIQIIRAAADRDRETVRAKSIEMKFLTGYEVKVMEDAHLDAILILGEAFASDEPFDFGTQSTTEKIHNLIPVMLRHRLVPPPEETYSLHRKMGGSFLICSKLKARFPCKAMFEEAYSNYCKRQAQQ
Active and inactive are the calls of the source.
# valid calls are label 1 = active, label 0 = inactive; nothing else

Cn1cc(-c2ccc3nnc(C(F)(F)c4ccc5ncccc5c4)n3n2)cn1	label 0

Query: For `N[C@@H]1CCCN(c2c(/C=C3\SC(=O)NC3=O)cccc2-c2ccccc2)C1` , what call appears in the results of this test?
Result: label 0

Query: For `CNC(=O)c1ccc(-c2cnc3ncc(Cc4ccc5ncccc5c4)n3n2)cc1F` , what call appears in the results of this test?
Result: label 0

Query: For `COCCNCc1ccc(-c2cc3nccc(Oc4ccc(NC(=S)NC(=O)Cc5ccc(F)cc5)cc4F)c3s2)nc1` , what call appears in the results of this test?
Result: label 0

Query: For `CC[C@H](Nc1ncnc2[nH]cnc12)c1nc2cccc(F)c2c(=O)n1-c1ccccc1` , what call appears in the results of this test?
Result: label 0

Query: For Cc1cc2c(F)c(Oc3ncnn4cc(OC[C@@H](C)OC(=O)[C@H](C)N)c(C)c34)ccc2[nH]1 [BRIVANIB ALANINATE] , what call appears in the results of this test?
Result: label 0

Query: For `COc1ccc(-c2ccc3c(N4CCOC[C@@H]4C)nc(N4CCOC[C@@H]4C)nc3n2)cc1CO` , what call appears in the results of this test?
Result: label 0

Query: For `Cc1nc(N)sc1-c1ccnc(Nc2ccc(N3CCOCC3)cc2)n1` , what call appears in the results of this test?
Result: label 1

====

- ASSAY TARGET: Probable ATP-dependent RNA helicase DDX6 (Homo sapiens); note: in the data inactive means no Kd found up to 30 µM
- Sequence (P26196 whole entry): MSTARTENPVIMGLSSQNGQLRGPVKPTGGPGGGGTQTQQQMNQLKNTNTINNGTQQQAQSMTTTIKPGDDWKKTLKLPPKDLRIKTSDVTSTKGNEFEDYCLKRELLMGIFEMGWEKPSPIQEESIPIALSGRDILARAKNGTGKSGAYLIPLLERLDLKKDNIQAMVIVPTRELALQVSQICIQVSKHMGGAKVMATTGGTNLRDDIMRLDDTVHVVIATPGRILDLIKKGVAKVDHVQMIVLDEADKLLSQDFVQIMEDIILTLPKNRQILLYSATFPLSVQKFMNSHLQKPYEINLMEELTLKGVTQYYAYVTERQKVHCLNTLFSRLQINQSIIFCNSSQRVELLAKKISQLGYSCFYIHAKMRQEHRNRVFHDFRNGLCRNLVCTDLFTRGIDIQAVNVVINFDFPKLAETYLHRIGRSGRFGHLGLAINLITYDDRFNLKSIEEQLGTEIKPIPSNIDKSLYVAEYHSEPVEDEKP
Calls of active or inactive are those of the source.
PROPERTY MEASURED: Kd

Below, each entry is followed by its recorded Kd result.
Cc1cc(-c2cc(O)ccc2Cl)cc2nnc(Nc3ccc(OCCN4CCCC4)cc3)nc12	> 30 µM (inactive)
Cc1nc(N)sc1-c1ccnc(Nc2ccc(N3CCOCC3)cc2)n1	> 30 µM (inactive)
Cc1cc(Nc2cc(N3CCN(C)CC3)nc(/C=C/c3ccccc3)n2)n[nH]1	> 30 µM (inactive)

Query: Please give the measured Kd for this molecule: `CCc1cnn2c(NCc3ccc[n+]([O-])c3)cc(N3CCCC[C@H]3CCO)nc12`
Result: > 30 µM (inactive)

Query: Please give the measured Kd for this molecule: `COc1cc(CCc2cc(NC(=O)c3ccc(N4C[C@@H](C)N[C@@H](C)C4)cc3)n[nH]2)cc(OC)c1`
Result: > 30 µM (inactive)

Query: Please give the measured Kd for this molecule: `C[C@@H](c1ccc2nccn2c1)n1nnc2ncc(-c3cnn(C)c3)nc21`
Result: > 30 µM (inactive)

Query: Please give the measured Kd for this molecule: `OCCn1cc(-c2cnc3nnn(Cc4ccc5ncccc5c4)c3n2)cn1`
Result: > 30 µM (inactive)

Query: Please give the measured Kd for this molecule: Cc1cc2c(F)c(Oc3ncnn4cc(OC[C@@H](C)OC(=O)[C@H](C)N)c(C)c34)ccc2[nH]1 [BRIVANIB ALANINATE]
Result: > 30 µM (inactive)

====

As a worked illustration, we turn to Kd data collected for MAP/microtubule affinity-regulating kinase 3 (Homo sapiens, UniProt P27448).
Calls of active or inactive are those of the source.

Below, each entry is followed by its recorded Kd result.
COc1cc2nccc(Oc3ccc(NC(=O)NC4CC4)c(Cl)c3)c2cc1C(N)=O	> 30 µM (inactive)
Cc1cc(-c2cc(O)ccc2Cl)cc2nnc(Nc3ccc(OCCN4CCCC4)cc3)nc12	> 30 µM (inactive)
Cc1c(F)cc(C(=O)NC2CC2)cc1-c1ccc(C(=O)NCC(C)(C)C)cn1	> 30 µM (inactive)
Cc1ccc(NC(=O)c2ccc(CN3CC[C@H](N(C)C)C3)c(C(F)(F)F)c2)cc1Nc1nccc(-c2cncnc2)n1	> 30 µM (inactive)

Query: API: value(readout=Kd, system=MAP/microtubule affinity-regulating kinase 3 (Homo sapiens, UniProt P27448)) for record `CCS(=O)(=O)N1CC(CC#N)(n2cc(-c3ncnc4[nH]ccc34)cn2)C1`; note: in the data inactive means no Kd found up to 30 µM
Result: 0.104 µM (active)

====

- ASSAY TARGET: Serine/threonine-protein kinase Nek3 (Homo sapiens, UniProt P51956); note: in the data inactive means no Kd found up to 30 µM
- Sequence (P51956 whole entry): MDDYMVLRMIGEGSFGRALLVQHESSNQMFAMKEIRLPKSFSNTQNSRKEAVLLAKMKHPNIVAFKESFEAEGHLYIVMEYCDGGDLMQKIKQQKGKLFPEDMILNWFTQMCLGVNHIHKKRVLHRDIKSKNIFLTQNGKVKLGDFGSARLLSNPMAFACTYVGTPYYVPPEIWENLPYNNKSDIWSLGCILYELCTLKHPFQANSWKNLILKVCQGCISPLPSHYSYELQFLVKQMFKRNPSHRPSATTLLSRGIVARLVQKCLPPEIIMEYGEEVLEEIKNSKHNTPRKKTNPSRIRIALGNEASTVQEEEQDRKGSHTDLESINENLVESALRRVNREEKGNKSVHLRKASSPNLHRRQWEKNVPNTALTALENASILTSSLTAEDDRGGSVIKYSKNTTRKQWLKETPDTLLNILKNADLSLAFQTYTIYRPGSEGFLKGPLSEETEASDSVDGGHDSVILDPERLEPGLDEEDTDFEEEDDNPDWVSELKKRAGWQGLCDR
Active and inactive are the calls of the source.
# valid calls are yes (active), no (inactive); nothing else

// below: answered compounds
Cn1ncc(Cl)c1-c1cc(C(=O)N[C@H](CN)Cc2cccc(F)c2)sc1Cl [AFURESERTIB]	no
Cc1cc(Nc2cc(N3CCN(C)CC3)nc(/C=C/c3ccccc3)n2)n[nH]1 [ENMD-2076]	no
CN1CC[C@@H](c2c(O)cc(O)c3c(=O)cc(-c4ccccc4Cl)oc23)[C@@H]1CO	no
COC(=O)N[C@@H](C)CNc1nccc(-c2cn(C(C)C)nc2-c2cc(Cl)cc(NS(C)(=O)=O)c2F)n1 [ENCORAFENIB]	no
OCCn1cc(-c2cnc3nnn(Cc4ccc5ncccc5c4)c3n2)cn1 [PF-04217903]	no

Query: For CNC(=O)CN1CCC(Oc2cc3c(Nc4cccc(Cl)c4F)ncnc3cc2OC)CC1 [SAPITINIB] , what call appears in the results of this test?
Result: no

Query: For C=CC(=O)N1CCC(Oc2cc3c(Nc4ccc(Cl)c(Cl)c4F)ncnc3cc2OC)CC1 [POZIOTINIB] , what call appears in the results of this test?
Result: no

Query: For CNS(=O)(=O)Nc1nccc(Cc2c(C)c3ccc(Oc4ncccn4)cc3oc2=O)c1F [AVUTOMETINIB] , what call appears in the results of this test?
Result: no

Query: For Cc1ccc(-n2nc(C(C)(C)C)cc2NC(=O)NCc2cc(F)ccc2Oc2ccc3c(cnn3CCO)c2)cc1 [PEXMETINIB] , what call appears in the results of this test?
Result: no

Query: For Cc1nc(N)sc1-c1ccnc(Nc2ccc(N3CCOCC3)cc2)n1 [CYC-116] , what call appears in the results of this test?
Result: yes

Query: For CO[C@H]1C[C@@H]2CC[C@@H](C)[C@@](O)(O2)C(=O)C(=O)N2CCCC[C@H]2C(=O)O[C@H]([C@H](C)C[C@@H]2CC[C@@H](OCCO)[C@H](OC)C2)CC(=O)[C@H](C)/C=C(\C)[C@@H](O)[C@@H](OC)C(=O)[C@H](C)C[C@H](C)/C=C/C=C/C=C/1C [EVEROLIMUS] , what call appears in the results of this test?
Result: no

Query: For CC[C@@H]1C(=O)N(C)c2cnc(Nc3ccc(C(=O)N[C@H]4CC[C@H](N5CCN(CC6CC6)CC5)CC4)cc3OC)nc2N1C(C)C [VOLASERTIB] , what call appears in the results of this test?
Result: yes

Query: For CCc1cnn2c(NCc3ccc[n+]([O-])c3)cc(N3CCCC[C@H]3CCO)nc12 [DINACICLIB] , what call appears in the results of this test?
Result: no

Query: For CNC(=O)c1cc(Oc2ccc(NC(=O)Nc3ccc(Cl)c(C(F)(F)F)c3)c(F)c2)ccn1 [REGORAFENIB] , what call appears in the results of this test?
Result: no

Query: For Cc1cc2c(F)c(Oc3ncnn4cc(OC[C@@H](C)OC(=O)[C@H](C)N)c(C)c34)ccc2[nH]1 [BRIVANIB ALANINATE] , what call appears in the results of this test?
Result: no

Query: For Cc1ccc(NC(=O)c2ccc(CN3CC[C@H](N(C)C)C3)c(C(F)(F)F)c2)cc1Nc1nccc(-c2cncnc2)n1 [BAFETINIB] , what call appears in the results of this test?
Result: no
